# Test system: Hepatocyte
# assay-remarks: Half life in human hepatocytes at 3 uM by LC-MS/MS analysis
# Assay type: ADME, cell-based
If the reported t1/2 equals or exceeds 3 h, assign t. If not, assign f.

Observe how each entry below is paired with its result.
{"compound": "Cc1ccc(C(SCCN)(c2ccccc2)c2cccc(O)c2)cc1 (racemic)", "class-assignment": "f"}
{"compound": "COc1ccc(C(SC[C@H](N)C(=O)O)(c2ccccc2)c2ccccc2)cc1", "class-assignment": "t"}
{"compound": "Cc1ccc(C(CCC(N)C(=O)O)(c2ccccc2)c2ccccc2)cc1C (racemic)", "class-assignment": "t"}
{"compound": "COc1ccc(C(CCCN)(c2ccccc2)c2ccccc2)cc1", "class-assignment": "t"}

input: Check the entry Cc1ccc(C(=O)N(CCCN)[C@@H](c2oc3cc(Cl)ccc3c(=O)c2Cc2ccccc2)C(C)C)cc1 : does t1/2 equal or exceed 3 h?
output: f

input: Identify whether the reported t1/2 of the following compound is 3 h or greater: CCc1cc(C(SC[C@H](N)C(=O)O)(c2ccccc2)c2ccccc2)ccc1C
output: f

Each recorded value in this set is attributed to ChEMBL document CHEMBL2321852.
